Reported EC50 values follow for various molecules
# System: HIV-1APV5μM
# Test name: microbe, parasite or virus in culture
# Assay type: cell-based
# Reported conditions: Human immunodeficiency virus 1, MT4, read-out: EC50 (μM), HIV-1APV5 μM
Entry rule: numbers only, all in µM.

CC(C)(C)NC(=O)[C@@H]1C[C@@H]2CCCC[C@@H]2CN1C[C@@H](O)[C@H](Cc1ccccc1)NC(=O)[C@H](CC(N)=O)NC(=O)c1ccc2ccccc2n1 [SQV, Saquinavir]	0.026
CCC[C@@]1(CCc2ccccc2)CC(O)=C([C@H](CC)c2cccc(NS(=O)(=O)c3ccc(C(F)(F)F)cn3)c2)C(=O)O1 [TPV, Tipranavir]	0.22
CC(C)CN(C[C@@H](O)[C@H](Cc1ccccc1)NC(=O)O[C@H]1CO[C@H]2OCC[C@H]21)S(=O)(=O)c1ccc(N)cc1 [DRV, Darunavir]	0.29
Cc1c(O)cccc1C(=O)N[C@@H](CSc1ccccc1)[C@H](O)CN1C[C@H]2CCCC[C@H]2C[C@H]1C(=O)NC(C)(C)C [NFV, Nelfinavir]	0.3

API: the following record is the query input.
[in] # get_value(readout='EC50', item= COC(=O)N[C@H](C(=O)N[C@@H](Cc1ccccc1)[C@@H](O)CN(Cc1ccc(-c2ccccn2)cc1)NC(=O)[C@@H](NC(=O)OC)C(C)(C)C)C(C)(C)C [AZV, Atazanavir] )
[out] 0.006

---

# Experimental system: HIV-1 protease (Human immunodeficiency virus type 1 group M subtype B, UniProt P04585)
# Construct: A simple, continuous fluorometric assay for HIV protease
# Test name: HIV protease enzyme inhibition, fluorometric assay of Toth and Marshall
# Format: biochemical
# Reported conditions: Table 3, E and Z isomers; read-out: Ki
Quantity name: Ki

COc1ccc2c(c1)OCCCCC=CCCCCN(CC(O)C(Cc1ccccc1)NC(=O)OC1COC3OCCC13)S2(=O)=O (stereo not drawn) [Compound 14a-E]	< 1 nM
COc1ccc2c(c1)OCCCC=CCCCCN(CC(O)C(Cc1ccccc1)NC(=O)OC1COC3OCCC13)S2(=O)=O (stereo not drawn) [Compound 14b-Z]	< 1 nM

[in] // Ki lookup, key: COc1ccc2c(c1)OCCCCC=CCCCCN(CC(O)C(Cc1ccccc1)NC(=O)OC1COC3OCCC13)S2(=O)=O (stereo not drawn) [Compound 14a-Z]
[out] < 1 nM

---

# Experimental system: HIV-1 protease (Human immunodeficiency virus type 1 group M subtype B)
# Construct: A simple, continuous fluorometric assay for HIV protease
# Test name: HIV protease enzyme inhibition, fluorometric assay of Toth and Marshall
# Format: biochemical
# Reported conditions: Ki, Table 2
Quantity name: Ki

[in] Query (molecule): COc1ccc2c(c1)OCC=CCCCCN(CC(O)C(Cc1ccccc1)NC(=O)OC1COC3OCCC13)S2(=O)=O (centres unmarked) [Compound 14d] ; field requested: Ki
[out] < 1 nM

[in] Look up Ki for this molecule: COc1ccc2c(c1)OCCCC=CCCCCN(CC(O)C(Cc1ccccc1)NC(=O)OC1COC3OCCC13)S2(=O)=O (centres unmarked) [Compound 14b]
[out] < 1 nM

---

# System: HIV-1246-1μM
# Test name: microbe, parasite or virus in culture
# Format: cell-based, HIV-1
# Reported conditions: Human immunodeficiency virus 1, MT4, read-out: EC50 (μM), HIV-1246-1 μM
Binarize EC50 at 0.3 µM; below is Met, at or above is Not met.

Past entries and their recorded results:
CC(C)CN(C[C@@H](O)[C@H](Cc1ccccc1)NC(=O)O[C@H]1CCOC1)S(=O)(=O)c1ccc(N)cc1	Not met
COc1ccc2c(c1)OCC=CCCCCN(CC(O)C(Cc1ccccc1)NC(=O)OC1COC3OCCC13)S2(=O)=O (stereo not drawn) [Compound 14d]	Not met
Cc1cccc(C)c1OCC(=O)N[C@@H](Cc1ccccc1)[C@@H](O)C[C@H](Cc1ccccc1)NC(=O)[C@H](C(C)C)N1CCCNC1=O	Not met
CC(C)CN(C[C@@H](O)[C@H](Cc1ccccc1)NC(=O)O[C@H]1CO[C@H]2OCC[C@H]21)S(=O)(=O)c1ccc(N)cc1	Met
CCC[C@@]1(CCc2ccccc2)CC(O)=C([C@H](CC)c2cccc(NS(=O)(=O)c3ccc(C(F)(F)F)cn3)c2)C(=O)O1	Met

// switching to the query compound
[in] Does COC(=O)N[C@H](C(=O)N[C@@H](Cc1ccccc1)[C@@H](O)CN(Cc1ccc(-c2ccccn2)cc1)NC(=O)[C@@H](NC(=O)OC)C(C)(C)C)C(C)(C)C have EC50 strictly under 0.3 µM?
[out] Met

---

# System: HIV-1246-1μM
# Test name: microbe, parasite or virus in culture
# Type: cell-based, HIV-1
# Reported conditions: Human immunodeficiency virus 1, MT4, read-out: EC50 (μM), HIV-1246-1 μM
Quantity name: EC50 (µM)
# unit: µM | format: bare number

Look over these answered cases.
COc1ccc2c(c1)OCCC=CCCCCN(CC(O)C(Cc1ccccc1)NC(=O)OC1COC3OCCC13)S2(=O)=O (stereo not drawn) [Compound 14c]	0.3
COc1ccc2c(c1)OCCCC=CCCCCN(CC(O)C(Cc1ccccc1)NC(=O)OC1COC3OCCC13)S2(=O)=O (stereo not drawn) [Compound 14b]	0.33

Now, please, on to the next compound.
[in] What measured EC50 goes with Cc1c(O)cccc1C(=O)N[C@@H](CSc1ccccc1)[C@H](O)CN1C[C@H]2CCCC[C@H]2C[C@H]1C(=O)NC(C)(C)C ?
[out] 0.29

---

# Experimental system: HIV-1 protease (Human immunodeficiency virus type 1 group M subtype B, UniProt P04585)
# Construct: A simple, continuous fluorometric assay for HIV protease
# Test name: HIV protease enzyme inhibition, fluorometric assay of Toth and Marshall
# Assay type: biochemical
# Reported conditions: Table 4; read-out: Ki
pKi: −log10 of the molar value.
Below is a list of entries, each paired with its recorded pKi value.

Before answering, review these 2 worked examples.
C=CCCCCOc1cc(OC)ccc1S(=O)(=O)N(C[C@@H](O)[C@H](Cc1ccccc1)NC(=O)O[C@H]1CO[C@H]2OCC[C@H]21)CC(C)(C)CC=C [Compound 19a]	> 7.00
COc1ccc2c(c1)OCCCCC=CCC(C)CN(CC(O)C(Cc1ccccc1)NC(=O)OC1COC3OCCC13)S2(=O)=O (stereo not drawn) [Compound 21b]	> 8.00

[in] Endpoint output: pKi of C=CCCCCOc1cc(OC)ccc1S(=O)(=O)N(CC(C)CC=C)C[C@@H](O)[C@H](Cc1ccccc1)NC(=O)O[C@H]1CO[C@H]2OCC[C@H]21 (single isomer, unassigned) [Compound 19c] . Value?
[out] > 8.00

[in] Please look up its pKi: COc1ccc2c(c1)OCCCCCCCC(C)CN(CC(O)C(Cc1ccccc1)NC(=O)OC1COC3OCCC13)S2(=O)=O (stereo not drawn) [Compound 22c]
[out] > 9.00

[in] # lookup: pKi of COc1ccc2c(c1)OCCCCC=CCC(C)(C)CN(CC(O)C(Cc1ccccc1)NC(=O)OC1COC3OCCC13)S2(=O)=O (stereo not drawn) [Compound 21a]
[out] > 8.00

[in] For the compound C=CCCCCOc1cc(OC)ccc1S(=O)(=O)N(CC(C)CC=C)C[C@@H](O)[C@H](Cc1ccccc1)NC(=O)O[C@H]1CO[C@H]2OCC[C@H]21 (single isomer, unassigned) [Compound 19b] , what pKi is on record?
[out] > 8.00

---

# Tested on: HIV-1286-1μM
# Test name: microbe, parasite or virus in culture
# Assay type: cell-based, HIV-1
# Reported conditions: compared to wild-type HIV-1NL4-3
Quantity name: n-fold change in EC50, HIV-1286-1 μM

Cc1cccc(C)c1OCC(=O)N[C@@H](Cc1ccccc1)[C@@H](O)C[C@H](Cc1ccccc1)NC(=O)[C@H](C(C)C)N1CCCNC1=O [LPV, lopinavir]	> 23
COC(=O)N[C@H](C(=O)N[C@@H](Cc1ccccc1)[C@@H](O)CN(Cc1ccc(-c2ccccn2)cc1)NC(=O)[C@@H](NC(=O)OC)C(C)(C)C)C(C)(C)C [AZV, Atazanavir]	(7)
COc1ccc2c(c1)OCCCC=CCCCCN(CC(O)C(Cc1ccccc1)NC(=O)OC1COC3OCCC13)S2(=O)=O (centres unmarked) [Compound 14b]	> 167
COc1ccc2c(c1)OCC=CCCCCN(CC(O)C(Cc1ccccc1)NC(=O)OC1COC3OCCC13)S2(=O)=O (centres unmarked) [Compound 14d]	> 59

[in] GET /values?readout=n-fold change in EC50, HIV-1286-1 μM&system=HIV-1286-1μM&item= CCC[C@@]1(CCc2ccccc2)CC(O)=C([C@H](CC)c2cccc(NS(=O)(=O)c3ccc(C(F)(F)F)cn3)c2)C(=O)O1 [TPV, Tipranavir]
[out] (0.1)

---

# System: HIV-2ROD
# Test name: drug susceptibility, MT-2 cells, MTT assay, HIV-2ROD
# Format: cell-based
# Reported conditions: Human immunodeficiency virus 2, MT2, read-out: EC50 (μM) for HIV-2ROD
Catalogue of EC50 readings, one per entry.
Give a bare numeral; the unit µM is implied.

CCC[C@@]1(CCc2ccccc2)CC(O)=C([C@H](CC)c2cccc(NS(=O)(=O)c3ccc(C(F)(F)F)cn3)c2)C(=O)O1	0.33

[in] Please state recorded EC50 (tested on HIV-2ROD) of COc1ccc2c(c1)OCCCC=CCCCCN(CC(O)C(Cc1ccccc1)NC(=O)OC1COC3OCCC13)S2(=O)=O (stereo not shown) [Compound 14b]
[out] 0.025

[in] Notebook entry, HIV-2ROD assay: EC50 of COc1ccc2c(c1)OCCC=CCCCCN(CC(O)C(Cc1ccccc1)NC(=O)OC1COC3OCCC13)S2(=O)=O (stereo not shown) [Compound 14c] = ?
[out] 0.017

[in] Request - read-out EC50 | tested on HIV-2ROD | molecule CC(C)CN(C[C@@H](O)[C@H](Cc1ccccc1)NC(=O)O[C@H]1CO[C@H]2OCC[C@H]21)S(=O)(=O)c1ccc(N)cc1
[out] 0.01
